The measured values listed here are drawn from patent US8877769B2.

measuredOn: FAAH (Homo sapiens, UniProt O00519)
Sequence (O00519 1-579): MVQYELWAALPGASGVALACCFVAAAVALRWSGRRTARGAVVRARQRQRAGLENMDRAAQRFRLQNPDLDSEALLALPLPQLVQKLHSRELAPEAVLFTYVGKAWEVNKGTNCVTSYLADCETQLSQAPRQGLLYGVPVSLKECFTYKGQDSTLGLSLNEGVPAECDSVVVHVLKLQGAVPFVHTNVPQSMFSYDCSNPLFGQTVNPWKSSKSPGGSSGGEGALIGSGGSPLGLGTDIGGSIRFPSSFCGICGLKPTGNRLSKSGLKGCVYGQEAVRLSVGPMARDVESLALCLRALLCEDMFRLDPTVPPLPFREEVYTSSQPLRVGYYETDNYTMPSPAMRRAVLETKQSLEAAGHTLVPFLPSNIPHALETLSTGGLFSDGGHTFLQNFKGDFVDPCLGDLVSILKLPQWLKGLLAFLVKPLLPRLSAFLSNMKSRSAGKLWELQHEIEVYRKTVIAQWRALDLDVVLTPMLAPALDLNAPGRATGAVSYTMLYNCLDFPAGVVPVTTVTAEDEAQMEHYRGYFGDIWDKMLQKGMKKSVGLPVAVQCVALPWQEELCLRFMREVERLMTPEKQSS
assay: Assay Method 1: FAAH assay, 3H-anandamide hydrolysis in cell homogenate
reportedEndpoint: log10(IC50) (log10 of the value in nM)
Field: value | Transform: log10 | Quantity: IC50 | Unit: nM

1) O=C(Nc1nocc1Cl)N1CCN(Cc2ccc3c(c2)OC(F)(F)O3)CC1 [Example 86]	1.86
2) O=C(Nc1noc2cccnc12)N1CCN(Cc2ccc(Cl)c(Cl)c2)CC1 [Example 43]	2.40
3) O=C(Nc1noc2ncccc12)N1CCN(Cc2cccc(Oc3ccc(SC(F)(F)F)cc3)c2)CC1 [Example 17]	2.67
4) O=C(Nc1noc2cnccc12)N1CCN(Cc2ccc3c(c2)OC(F)(F)O3)CC1 [Example 39]	0.78

Here's the next entry for you.
Q: Any idea what log10(IC50) was measured for O=C(Nc1noc2ncccc12)N1CCN(Cc2ccc(Cl)c(Cl)c2)CC1 [Example 13] ?
A: 2.66
